These molecules were tested on Acetylcholinesterase (Electrophorus electricus, UniProt O42275); IC50 is the recorded read-out.
Sequence (O42275 whole entry): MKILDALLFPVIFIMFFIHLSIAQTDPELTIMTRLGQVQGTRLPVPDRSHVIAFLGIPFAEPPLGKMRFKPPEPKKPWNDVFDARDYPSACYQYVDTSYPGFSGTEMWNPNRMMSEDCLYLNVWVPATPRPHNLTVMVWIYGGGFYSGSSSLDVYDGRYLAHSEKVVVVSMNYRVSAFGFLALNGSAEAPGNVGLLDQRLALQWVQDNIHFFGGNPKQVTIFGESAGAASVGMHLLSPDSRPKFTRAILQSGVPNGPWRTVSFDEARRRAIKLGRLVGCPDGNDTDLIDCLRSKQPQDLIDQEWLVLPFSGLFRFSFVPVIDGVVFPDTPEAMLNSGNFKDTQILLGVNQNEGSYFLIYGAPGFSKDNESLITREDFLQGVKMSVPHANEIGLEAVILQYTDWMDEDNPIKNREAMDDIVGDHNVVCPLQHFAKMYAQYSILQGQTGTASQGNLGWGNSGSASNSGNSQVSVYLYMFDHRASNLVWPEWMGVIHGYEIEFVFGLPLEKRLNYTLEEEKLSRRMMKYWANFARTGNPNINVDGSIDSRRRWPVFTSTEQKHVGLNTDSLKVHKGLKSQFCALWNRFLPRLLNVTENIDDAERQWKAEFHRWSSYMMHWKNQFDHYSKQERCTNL
Answers are plain numbers, in µM.

Consider the following items and state reported IC50 for each.
1. O=C1CC(c2ccc(O)cc2)Oc2cc(OC(=O)N3CCOCC3)cc(O)c21 (stereo not given)
2. CCN(C)C(=O)Oc1cc(O)c2c(c1)OC(c1ccc(O)cc1)CC2=O (stereo not given)
3. O=C1CC(c2ccc(O)cc2)Oc2cc(OC(=O)N3CCCCC3)cc(O)c21 (stereo not given)
4. CN(C)C(=O)Oc1ccc(C2CC(=O)c3c(O)cc(OC(=O)N(C)C)cc3O2)cc1 (stereo not given)

12.9
28.3
62.5
23.9
